meta.source: patent US9080197B2

Listed next: entries and their corresponding Equol concentration in medium.
Tested on: feces of an equol producer (microorganisms having conversion ability to equol)
measurement_protocol: Effect of carbohydrates upon equol production in anaerobic culture of feces of an equol producer with daidzein
Type: cell-based
stated_conditions: carbohydrate 1%, daidzein 100 μM, anaerobic, 37° C., 16 hours; no carbohydrate 18.1 μM
Just the number please, in µM, no unit attached.

Summary for this molecule, "OC[C@@H](O)[C@@H](O)CO" : Equol concentration in medium is 38.7

According to the records, this molecule "OC[C@@H](O)[C@@H](O)[C@H](O)[C@H](O)CO" displays Equol concentration in medium of 32.9

The value of Equol concentration in medium measured for the molecule "OC[C@@H](O)[C@@H](O)[C@@H](O)CO" turned out to be 47.0

Quick note, Equol concentration in medium for "OC[C@H]1O[C@@](CO)(O[C@H]2O[C@H](CO)[C@@H](O)[C@H](O)[C@H]2O)[C@@H](O[C@H]2O[C@H](CO)[C@@H](O)[C@H](O)[C@H]2O)[C@@H]1O" landed at 74.3

Form field Equol concentration in medium, entry "O=C[C@H](O)[C@@H](O)[C@H](O[C@@H]1O[C@H](CO)[C@@H](O)[C@H](O)[C@H]1O)[C@H](O)CO" : 29.0

The molecule identified as "O=C[C@H](O)[C@@H](O)[C@@H](O)[C@H](O)CO" registered its Equol concentration in medium at 65.0

For reference, reported Equol concentration in medium for "OC[C@H]1O[C@H](O[C@H]2[C@H](O)[C@@H](O)[C@H](O)O[C@@H]2CO)[C@H](O)[C@@H](O)[C@@H]1O" stands at 10.6

###

Test system: feces of an equol producer (microorganisms having conversion ability to equol)
measurement_protocol: Effect of carbohydrates upon equol production in anaerobic culture of feces of an equol producer with daidzein
Assay type: cell-based
stated_conditions: carbohydrate 1%, daidzein 100 μM, anaerobic, 37° C., 16 hours; no carbohydrate 18.1 μM
Experimental: […] Daidzein and equol standard products were poured in the aforementioned conditions to form calibration curves, respectively. In this manner, daidzein and equol concentrations of the samples were determined. […]
Property: Equol concentration in medium; scope: individual molecules
Number first, unit second.

See these solved cases before continuing.
[[record]]
molecule = "OC[C@H]1O[C@@H](O[C@@H]2[C@@H](CO)OC(O)(CO)[C@H]2O)[C@H](O)[C@@H](O)[C@H]1O (mixture of isomers) [Lactulose, lactulose]"
result = "1.5 µM"

[[record]]
molecule = "OC[C@@H](O)[C@@H](O[C@@H]1O[C@H](CO)[C@H](O)[C@H](O)[C@H]1O)[C@H](O)[C@@H](O)CO [Lactitol, lactitol]"
result = "82.9 µM"

[[record]]
molecule = "O=C[C@H](O)[C@H](O)[C@H](O)CO [Ribose, ribose]"
result = "59.5 µM"

[[record]]
molecule = "OC[C@H]1O[C@H](O[C@H]2O[C@H](CO)[C@@H](O)[C@H](O)[C@H]2O)[C@H](O)[C@@H](O)[C@@H]1O [Trehalose, D(+) trehalose]"
result = "72.9 µM"


The reported value for O=C(CO)[C@H](O)[C@@H](O)[C@H](O)CO [Sorbose, sorbose] in terms of Equol concentration in medium is 84.5 µM

// recorded Equol concentration in medium for O=C[C@@H](O)[C@H](O)[C@H](O)CO [Arabinose, arabinose] : 70.6 µM

Per the records, this molecule ( O=C[C@H](O)[C@@H](O)[C@H](O)CO [Xylose, xylose] ) has Equol concentration in medium equal to 79.9 µM

Record OC[C@H]1O[C@@H](O[C@H]2[C@H](O)[C@@H](O)C(O)O[C@@H]2CO)[C@H](O)[C@@H](O)[C@H]1O (stereo partly drawn) [Lactose, lactose] , field Equol concentration in medium: 0.0 µM

Please fill in: Equol concentration in medium reported for OC[C@@H](O)[C@@H](O)[C@H](O)[C@@H](O)CO [Sorbitol, sorbitol] = 67.3 µM

So, OC[C@H]1O[C@H](OCC2O[C@@H](O)[C@H](O)[C@@H](O)[C@@H]2O)[C@H](O)[C@@H](O)[C@H]1O (stereo partly drawn) [Melibiose, melibiose] ? Its Equol concentration in medium was 4.5 µM

###

Test system: feces of an equol producer (microorganisms having conversion ability to equol)
measurement_protocol: Effect of carbohydrates upon equol production in anaerobic culture of feces of an equol producer with daidzein
Assay type: cell-based
stated_conditions: carbohydrate 1%, daidzein 100 μM, anaerobic, 37° C., 16 hours; no carbohydrate 18.1 μM
quantity_name: Equol concentration in medium (µM)
Numeric answer only, unit µM assumed.

[[record]]
smiles_structure = "O=C(CO)[C@@H](O)[C@H](O)[C@H](O)CO"
recorded_number = 9.3

[[record]]
smiles_structure = "C[C@H](O)[C@H](O)[C@@H](O)[C@@H](O)C=O"
recorded_number = 21.0

[[record]]
smiles_structure = "O[C@H]1[C@H](O)[C@@H](O)[C@H](O)[C@@H](O)[C@H]1O"
recorded_number = 75.2


Equol concentration in medium recorded for this compound, "OC[C@H]1O[C@@](CO)(O[C@H]2O[C@H](CO)[C@@H](O)[C@H](O)[C@H]2O)[C@@H](O)[C@@H]1O" , is 0.0

So for "OC[C@H]1O[C@H](OC[C@H]2O[C@H](O[C@]3(CO)O[C@H](CO)[C@@H](O)[C@@H]3O)[C@H](O)[C@@H](O)[C@@H]2O)[C@H](O)[C@@H](O)[C@H]1O" , the logged Equol concentration in medium turned out to be 0.0
